Assay: recombinant barcode read abundance after kanamycin selection (control-corrected) (log10(CPM+1)); higher = more efficient recombination; sequences stand for … in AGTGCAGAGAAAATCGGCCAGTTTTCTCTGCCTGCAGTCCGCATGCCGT…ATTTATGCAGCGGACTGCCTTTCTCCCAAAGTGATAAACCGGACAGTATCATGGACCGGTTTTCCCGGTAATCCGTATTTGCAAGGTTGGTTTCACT; site = the 11-nt target
Field: recombinant barcode read abundance (log10). Provide a value for each of the sequences that follow.
One number for each entry.

Consider the following illustrative entries.
>  <seq-string>
GGGCGTGCTTGGGTTCTAACCTGTTGCCTTT [GGGCGTGCTAG_LTGcore_CT_RTGcore_AA] (site GGGCGTGCTAG) (LTG core: CT, RTG core: AA)

>  <observed-measurement>
0.509

$$$$
>  <seq-string>
GAGTCCTCTTGGGTTCTAACCTGTTGCCTAT [GAGTCCTCTAG_LTGcore_CT_RTGcore_AT] (site GAGTCCTCTAG) (LTG core: CT, RTG core: AT)

>  <observed-measurement>
0.495

$$$$
>  <seq-string>
AGTCTTACGTGGGTTCTAACCTGTTGCCAAG [AGTCTTACTTG_LTGcore_CG_RTGcore_CT] (site AGTCTTACTTG) (LTG core: CG, RTG core: CT)

>  <observed-measurement>
0.0383

$$$$

List reported recombinant barcode read abundance (log10) for each of these sequences:
1. TCTACCCGATGGGTTCTAACCTGTTGCTGTC [TCTACCCCTCA_LTGcore_GA_RTGcore_GA] (site TCTACCCCTCA) (LTG core: GA, RTG core: GA)
2. GGGCGGATATGGGTTCTAACCTGTTGCGGAG [GGGCGGACTCC_LTGcore_TA_RTGcore_CT] (site GGGCGGACTCC) (LTG core: TA, RTG core: CT)
3. TAGAGGGCTTGGGTTCTAACCTGTTGCGGAA [TAGAGGGCTCC_LTGcore_CT_RTGcore_TT] (site TAGAGGGCTCC) (LTG core: CT, RTG core: TT)
4. CGAGCCCGCTGGGTTCTAACCTGTTGCTGAG [CGAGCCCCTCA_LTGcore_GC_RTGcore_CT] (site CGAGCCCCTCA) (LTG core: GC, RTG core: CT)
5. GGGAGCCCATGGGTTCTAACCTGTTGCTGTG [GGGAGCCCTCA_LTGcore_CA_RTGcore_CA] (site GGGAGCCCTCA) (LTG core: CA, RTG core: CA)

1: 0.0498; 2: 0.0954; 3: 0.746; 4: 0.195; 5: 0.536

* * *

Assay: recombinant UMI read abundance after kanamycin selection (control-corrected) (log10(CPM+1)); higher = more efficient recombination; extreme values may be limits of the assay; sequences stand for … in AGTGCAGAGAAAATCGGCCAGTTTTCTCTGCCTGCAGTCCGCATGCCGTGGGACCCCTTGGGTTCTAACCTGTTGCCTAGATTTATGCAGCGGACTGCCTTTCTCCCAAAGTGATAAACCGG…AGGTTGGTTTCACT; site = the 11-nt donor
outcome-measure: recombinant UMI read abundance (log10)
Give bare numbers.

>  <seq-string>
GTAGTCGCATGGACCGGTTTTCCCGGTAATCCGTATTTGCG (site GTAGTCACTCG)

>  <outcome-measure>
recombinant UMI read abundance (log10)

>  <observed-measurement>
1.24

$$$$
>  <seq-string>
GCCAATTCATGGACCGGTTTTCCCGGTAATCCGTATTTGCC (site TCCAATTCTGG)

>  <outcome-measure>
recombinant UMI read abundance (log10)

>  <observed-measurement>
0

$$$$
>  <seq-string>
GTAGATTCATGGACCGGTTTTCCCGGTAATCCGTATTTGTT (site GGAGATTCTAA)

>  <outcome-measure>
recombinant UMI read abundance (log10)

>  <observed-measurement>
0.98

$$$$
>  <seq-string>
CAATTCACATGGACCGGTTTTCCCGGTAATCCGTATTTGCT (site CAATTCACTAG)

>  <outcome-measure>
recombinant UMI read abundance (log10)

>  <observed-measurement>
1.32

$$$$
>  <seq-string>
GAGCACACATGGACCGGTTTTCCCGGTAATCCGTATTTGAT (site GAGCGCACTAT)

>  <outcome-measure>
recombinant UMI read abundance (log10)

>  <observed-measurement>
0.00425

$$$$
>  <seq-string>
CTAGACCCATGGACCGGTTTTCCCGGTAATCCGTATTTGGA (site CTAGACCCTTC)

>  <outcome-measure>
recombinant UMI read abundance (log10)

>  <observed-measurement>
0.351

$$$$
>  <seq-string>
CAGGCAGCATGGACCGGTTTTCCCGGTAATCCGTATTTGCT (site CATGCAGCTAG)

>  <outcome-measure>
recombinant UMI read abundance (log10)

>  <observed-measurement>
0

$$$$
>  <seq-string>
CTATAATCATGGACCGGTTTTCCCGGTAATCCGTATTTGCT (site CGATCATCTAG)

>  <outcome-measure>
recombinant UMI read abundance (log10)

>  <observed-measurement>
0

$$$$
>  <seq-string>
TCCACTGCATGGACCGGTTTTCCCGGTAATCCGTATTTGCG (site TCCACTGCTCG)

>  <outcome-measure>
recombinant UMI read abundance (log10)

>  <observed-measurement>
0.0111

$$$$
>  <seq-string>
TATTTGGCATGGACCGGTTTTCCCGGTAATCCGTATTTGAG (site TATTTGGCTCC)

>  <outcome-measure>
recombinant UMI read abundance (log10)

>  <observed-measurement>
0.00558

$$$$

List reported recombinant UMI read abundance (log10) for each of these sequences:
1. TGCCAGGCATGGACCGGTTTTCCCGGTAATCCGTATTTGGT (site TGCAAGGCTAC)
2. GTACTCGCATGGACCGGTTTTCCCGGTAATCCGTATTTGCG (site GTACTCGCTCG)
3. GAATGTCCATGGACCGGTTTTCCCGGTAATCCGTATTTGCA (site GAATGTCCTTG)
4. ATCCTTTCATGGACCGGTTTTCCCGGTAATCCGTATTTGAC (site ACCCTTTCTGT)
5. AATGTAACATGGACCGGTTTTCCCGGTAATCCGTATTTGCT (site AATGTAACTAC)
6. TCCAGCGCATGGACCGGTTTTCCCGGTAATCCGTATTTGCG (site TCCATCGCTCG)
7. TGCAATTCATGGACCGGTTTTCCCGGTAATCCGTATTTGCC (site TTCAATTCTGG)
8. TATTAGGCATGGACCGGTTTTCCCGGTAATCCGTATTTGTG (site TATTTGGCTCA)

0.016
0.0142
1.28
0
0.00758
0.00909
0
0.0156

* * *

Field: recombinant UMI read abundance (log10). Provide a value for each of the sequences that follow.
Assay: recombinant UMI read abundance after kanamycin selection (control-corrected) (log10(CPM+1)); higher = more efficient recombination; extreme values may be limits of the assay; sequences stand for … in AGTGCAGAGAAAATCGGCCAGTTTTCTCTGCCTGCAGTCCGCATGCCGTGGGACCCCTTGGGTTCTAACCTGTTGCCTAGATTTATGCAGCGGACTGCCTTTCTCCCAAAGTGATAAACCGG…AGGTTGGTTTCACT; site = the 11-nt donor
One number for each entry.

Consider the following illustrative entries.
>  <seq-string>
GTACATGCATGGACCGGTTTTCCCGGTAATCCGTATTTGGT (site GTCCATGCTAC)

>  <recombinant UMI read abundance (log10)>
0.0463

$$$$
>  <seq-string>
CGGTAGTCATGGACCGGTTTTCCCGGTAATCCGTATTTGCC (site CGGTAGTCTGG)

>  <recombinant UMI read abundance (log10)>
2.78

$$$$
>  <seq-string>
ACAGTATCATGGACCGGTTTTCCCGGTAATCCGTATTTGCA (site ACACTATCTCG)

>  <recombinant UMI read abundance (log10)>
0

$$$$
>  <seq-string>
GTGAAAACATGGACCGGTTTTCCCGGTAATCCGTATTTGCT (site GAGAAAACTAG)

>  <recombinant UMI read abundance (log10)>
0.918

$$$$

Please turn your attention to the following entry.
Would you mind telling me what recombinant UMI read abundance (log10) value was observed for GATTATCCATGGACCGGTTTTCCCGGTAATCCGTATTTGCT (site GATGATCCTAG) ?
0

* * *

Assay: recombinant barcode read abundance after kanamycin selection (control-corrected) (log10(CPM+1)); higher = more efficient recombination; sequences stand for … in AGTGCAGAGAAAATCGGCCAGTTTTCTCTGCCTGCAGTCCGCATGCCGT…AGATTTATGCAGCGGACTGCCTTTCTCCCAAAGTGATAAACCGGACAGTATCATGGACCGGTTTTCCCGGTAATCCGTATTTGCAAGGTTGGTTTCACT; site = the 11-nt target
Please mark Y if the recorded recombinant barcode read abundance (log10) is equal to or greater than 0.6, and N if it falls below.

Examples with answers:
>  <seq-string>
AAGAAGCCTTGGGTTCTAACCTGTTGCCT (site TAGAAGCCTAG)

>  <answer-label>
N

$$$$
>  <seq-string>
TTGGACGCTTGGGTTCTAACCTGTTGCCT (site TTGGACGCTAG)

>  <answer-label>
Y

$$$$
>  <seq-string>
GCTCAACCTTGGGTTCTAACCTGTTGCCT (site GCTCAACCTAG)

>  <answer-label>
Y

$$$$
>  <seq-string>
GAGCTACCTTGGGTTCTAACCTGTTGCCG (site GAGCTACCTGG)

>  <answer-label>
N

$$$$
>  <seq-string>
GACCAGCCTTGGGTTCTAACCTGTTGCGT (site GACCAGCCTAG)

>  <answer-label>
N

$$$$

Can CGTCTGCCTTGGGTTCTAACCTGTTGCCT (site AGTCTGCCTAG) be said to have recombinant barcode read abundance (log10) at or above 0.6?
N

Can TCCAACCCTTGGGTTCTAACCTGTTGCAG (site TCCAAACCTCT) be said to have recombinant barcode read abundance (log10) at or above 0.6?
N

Can CTTGAGACTTGGGTTCTAACCTGTTGCCT (site CTTGAGACTAG) be said to have recombinant barcode read abundance (log10) at or above 0.6?
Y

Can GATCGGACTTGGGTTCTAACCTGTTGCGG (site GATCGGACTCC) be said to have recombinant barcode read abundance (log10) at or above 0.6?
Y

Can CTGATGTCTTGGGTTCTAACCTGTTGCCA (site CTGGTGTCTTG) be said to have recombinant barcode read abundance (log10) at or above 0.6?
N

Can CTGATCCCTTGGGTTCTAACCTGTTGCCT (site CAGATCCCTAG) be said to have recombinant barcode read abundance (log10) at or above 0.6?
Y

Can CAGATCCCTTGGGTTCTAACCTGTTGCCT (site CAGATCCCTAG) be said to have recombinant barcode read abundance (log10) at or above 0.6?
Y

Can ACGAGTACTTGGGTTCTAACCTGTTGCGG (site ACGAGTACTCA) be said to have recombinant barcode read abundance (log10) at or above 0.6?
N

Can CTTTCGTCTTGGGTTCTAACCTGTTGCCT (site CTTTCGTCTAG) be said to have recombinant barcode read abundance (log10) at or above 0.6?
N

Can TAGGCTCCTTGGGTTCTAACCTGTTGCAG (site TAGGCTCCTTT) be said to have recombinant barcode read abundance (log10) at or above 0.6?
N
